Taken from ChEMBL document CHEMBL4765234.

Please respond with reported Emax for every item in the list.
experimental_target: Free fatty acid receptor 1 (Rattus norvegicus) (UniProt Q8K3T4)
Sequence (Q8K3T4 whole entry, the tested form may be a part): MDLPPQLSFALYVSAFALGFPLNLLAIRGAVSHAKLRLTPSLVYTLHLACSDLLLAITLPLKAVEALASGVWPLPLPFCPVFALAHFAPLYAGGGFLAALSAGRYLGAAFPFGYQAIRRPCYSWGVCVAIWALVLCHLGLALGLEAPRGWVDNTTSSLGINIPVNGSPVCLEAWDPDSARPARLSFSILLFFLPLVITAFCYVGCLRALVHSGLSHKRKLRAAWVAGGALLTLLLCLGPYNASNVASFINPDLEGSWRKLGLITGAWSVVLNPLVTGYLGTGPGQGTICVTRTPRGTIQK
run_description: Agonist activity at Prolink-tagged rat GPR40 fused with EA-tagged beta-arrestin expressed in human U2OS cells assessed as induction of beta-arrestin recruitment measured after 90 mins by beta-galactosidase based PathHunter assay relative to control
Assay type: cell-based
conditions_used: filed as agonist
# number only, unit % dropped from output

(Q) Which Emax value is on record for CC#C[C@@H](CC(=O)O)c1ccc(OCc2cccc(-c3ccc(C(F)(F)F)cc3)c2)cc1 ?
(A) 148

(Q) Which Emax value is on record for O=C(O)CCc1ccc(OCc2ccc(CN3CCC4(C=Cc5ccccc54)CC3)cc2)cc1Cl ?
(A) 108

(Q) Which Emax value is on record for CC#C[C@@H](CC(=O)O)c1ccc(OCc2ccc(CN3CCC4(C=Cc5ccccc54)CC3)c(F)c2)cc1 ?
(A) 145

(Q) Which Emax value is on record for CC#C[C@@H](CC(=O)O)c1ccc(OCc2cc(C)c(CN3CCC4(C=Cc5ccccc54)CC3)s2)cc1 ?
(A) 121

(Q) Which Emax value is on record for CC#C[C@@H](CC(=O)O)c1ccc(OCc2ccc(CN3CCC4(CC3)CN(C)c3ccccc34)cc2)cc1 ?
(A) 126

(Q) Which Emax value is on record for CC#C[C@@H](CC(=O)O)c1ccc(OCc2ccc(CN3CCC4(CC3)CC(=O)c3ccccc3O4)cc2)cc1 ?
(A) 159

(Q) Which Emax value is on record for CC#C[C@@H](CC(=O)O)c1ccc(OCc2ccc(CN3CCC4(C=Cc5ccccc54)CC3)c(Cl)c2)cc1 ?
(A) 161

(Q) Which Emax value is on record for CC#C[C@@H](CC(=O)O)c1ccc(OCc2ccc(CN3CCC4(CC3)CN(C(C)C)c3ccccc34)cc2)cc1 ?
(A) 139

----------
experimental_target: Free fatty acid receptor 1 (Mus musculus) (UniProt Q76JU9)
Sequence (Q76JU9 whole entry, the tested form may be a part): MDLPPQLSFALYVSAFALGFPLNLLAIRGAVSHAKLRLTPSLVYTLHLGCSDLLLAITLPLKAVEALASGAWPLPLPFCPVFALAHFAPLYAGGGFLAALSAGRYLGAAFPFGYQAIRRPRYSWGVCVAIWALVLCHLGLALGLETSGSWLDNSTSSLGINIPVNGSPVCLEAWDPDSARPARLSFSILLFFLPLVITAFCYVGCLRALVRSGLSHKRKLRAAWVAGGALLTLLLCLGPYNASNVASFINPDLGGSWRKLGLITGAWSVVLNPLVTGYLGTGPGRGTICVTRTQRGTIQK
run_description: Agonist activity at Prolink-tagged mouse GPR40 fused with EA-tagged beta-arrestin expressed in human U2OS cells assessed as induction of beta-arrestin recruitment measured after 90 mins by beta-galactosidase based PathHunter assay relative to control
Format: cell-based
conditions_used: filed as agonist
Please respond with reported Emax for every item in the list.
# number only, unit % dropped from output

(Q) Which Emax value is on record for CC#C[C@@H](CC(=O)O)c1ccc(OCc2ccc(CN3CCC4(CC3)CN(C)c3ccccc34)cc2)cc1 ?
(A) 131

(Q) Which Emax value is on record for CC#C[C@@H](CC(=O)O)c1ccc(OCc2ccc(CN3CCC4(C=Cc5ccccc54)CC3)c(C)c2)cc1 ?
(A) 147

(Q) Which Emax value is on record for CC#C[C@@H](CC(=O)O)c1ccc(OCc2ccc(CN3CCC4(CC3)CN(c3ccccc3)c3ccccc34)cc2)cc1 ?
(A) 130

(Q) Which Emax value is on record for CC#C[C@@H](CC(=O)O)c1ccc(OCc2ccc(CN3CCC4(CC3)CN(C)c3ccc(C)cc34)cc2)cc1 ?
(A) 145

(Q) Which Emax value is on record for CC#C[C@@H](CC(=O)O)c1ccc(OCc2ccc(CN3CCC4(C=Cc5ccccc54)CC3)cc2)cc1 ?
(A) 133

(Q) Which Emax value is on record for CC#C[C@@H](CC(=O)O)c1ccc(OCc2ccc(CN3CCC4(CC3)CN(C)c3ccc(C(F)(F)F)cc34)cc2)cc1 ?
(A) 158

(Q) Which Emax value is on record for CC#C[C@@H](CC(=O)O)c1ccc(OCc2sc(CN3CCC4(C=Cc5ccccc54)CC3)nc2C)cc1 ?
(A) 97

(Q) Which Emax value is on record for CC#C[C@@H](CC(=O)O)c1ccc(OCc2ccc(CN3CCC4(C=Cc5ccccc54)CC3)c(C(F)(F)F)c2)cc1 ?
(A) 146
